# tested.system: T1, human BAFF (10056-HNCH, Sino biological) (human, UniProt Q9Y275 134-285)
# T1 construct: Bought protein
# assay: ELISA, BAFF coated, fusion protein titrated
reported.metric: EC50
Please report the result as a number followed by the unit.

Value of EC50 reported for the binder TACI-9-7Fc (Fc fusion, two identical polypeptides) SRSCRKEQGKFYDHLLRACISCASICGQHPKQCAYFCENKLDKTHTCPPCPAPEAEGAPSVFLFPPKPKDTLMISRTPEVTCVVVDVSHEDPEVKFNWYVDGVEVHNAKTKPREEQYNSTYRVVSVLTVLHQDWLNGKEYKCKVSNKALPSSIEKTISKAKGQPREPQVYTLPPSRDELTKNQVSLTCLVKGFYPSDIAVEWESNGQPENNYKTTPPVLDSDGSFFLYSKLTVDKSRWQQGNVFSCSVMHEALHNHYTQKSLSLSPGK is 0.727 nM
